# assay-remarks: Antiproliferative activity against human U87 cells assessed as cell-growth inhibition after 48 hrs by MTT assay
# Assay type: functional, cell-based, U-87MG ATCC
# condition-parameters: U-87 MG
Listing of entries alongside the reported pIC50.
Remember the convention: pIC50 equals -log10 of concentration in molar.

O=c1[nH]cc(F)c(=O)[nH]1: 4.42
C=C(CCCC(C)(C)OC(=O)CCl)[C@H]1CC[C@]2(C)[C@@H]1[C@H](O)C[C@@H]1[C@@]3(C)CC[C@H](O)C(C)(C)[C@@H]3CC[C@]12C: 5.00
CC(C)(CCC[C@@](C)(O)[C@H]1CC[C@]2(C)[C@@H]1[C@H](O)C[C@@H]1[C@@]3(C)CC[C@H](OC(=O)CCl)C(C)(C)[C@@H]3CC[C@]12C)OC(=O)CCl: 4.40
CC(=O)O[C@H]1CC[C@]2(C)[C@H]3C[C@@H](OC(C)=O)[C@@H]4[C@@H]([C@](C)(O)CCCC(C)(C)O)CC[C@@]4(C)[C@]3(C)CC[C@H]2C1(C)C: 4.39
CC(=O)O[C@H]1CC[C@]2(C)[C@H]3C[C@@H](O)[C@@H]4[C@@H]([C@](C)(O)CCCC(C)(C)O)CC[C@@]4(C)[C@]3(C)CC[C@H]2C1(C)C: 4.49
CC(C)(O)CCC[C@@](C)(O)[C@H]1CC[C@]2(C)[C@@H]1[C@H](OC(=O)CCl)C[C@@H]1[C@@]3(C)CC[C@H](OC(=O)CCl)C(C)(C)[C@@H]3CC[C@]12C: 4.06
CC(C)(CCC[C@@](C)(OC(=O)CCl)[C@H]1CC[C@]2(C)[C@@H]1[C@H](O)C[C@@H]1[C@@]3(C)CC[C@H](O)C(C)(C)[C@@H]3CC[C@]12C)OC(=O)CCl: 4.72
CC(=O)O[C@@H]1C[C@@H]2[C@@]3(C)CC[C@H](O)C(C)(C)[C@@H]3CC[C@@]2(C)[C@]2(C)CC[C@H]([C@](C)(O)CCCC(C)(C)O)[C@@H]12: 4.46
C/C(=C/CCC(C)(C)O)[C@H]1CC[C@]2(C)[C@@H]1[C@H](OC(=O)CCl)C[C@@H]1[C@@]3(C)CC[C@H](OC(=O)CCl)C(C)(C)[C@@H]3CC[C@]12C: 4.78
CC(C)(O)CCC[C@@](C)(O)[C@H]1CC[C@]2(C)[C@@H]1[C@H](OC(=O)CCl)C[C@@H]1[C@@]3(C)CC[C@H](O)C(C)(C)[C@@H]3CC[C@]12C: 5.14

Continue with the next compound.
Request: Which pIC50 reading was recorded for the compound C/C(=C/CCC(C)(C)O)[C@H]1CC[C@]2(C)[C@@H]1[C@H](OC(=O)CCl)C[C@@H]1[C@@]3(C)CC[C@H](O)C(C)(C)[C@@H]3CC[C@]12C ?
Result: 4.46
